Quick reference: log10 of Activity of the listed items.
# Target Of Assay: Voltage-gated inwardly rectifying potassium channel KCNH2 (Homo sapiens, UniProt Q12809)
# Sequence (Q12809 whole entry): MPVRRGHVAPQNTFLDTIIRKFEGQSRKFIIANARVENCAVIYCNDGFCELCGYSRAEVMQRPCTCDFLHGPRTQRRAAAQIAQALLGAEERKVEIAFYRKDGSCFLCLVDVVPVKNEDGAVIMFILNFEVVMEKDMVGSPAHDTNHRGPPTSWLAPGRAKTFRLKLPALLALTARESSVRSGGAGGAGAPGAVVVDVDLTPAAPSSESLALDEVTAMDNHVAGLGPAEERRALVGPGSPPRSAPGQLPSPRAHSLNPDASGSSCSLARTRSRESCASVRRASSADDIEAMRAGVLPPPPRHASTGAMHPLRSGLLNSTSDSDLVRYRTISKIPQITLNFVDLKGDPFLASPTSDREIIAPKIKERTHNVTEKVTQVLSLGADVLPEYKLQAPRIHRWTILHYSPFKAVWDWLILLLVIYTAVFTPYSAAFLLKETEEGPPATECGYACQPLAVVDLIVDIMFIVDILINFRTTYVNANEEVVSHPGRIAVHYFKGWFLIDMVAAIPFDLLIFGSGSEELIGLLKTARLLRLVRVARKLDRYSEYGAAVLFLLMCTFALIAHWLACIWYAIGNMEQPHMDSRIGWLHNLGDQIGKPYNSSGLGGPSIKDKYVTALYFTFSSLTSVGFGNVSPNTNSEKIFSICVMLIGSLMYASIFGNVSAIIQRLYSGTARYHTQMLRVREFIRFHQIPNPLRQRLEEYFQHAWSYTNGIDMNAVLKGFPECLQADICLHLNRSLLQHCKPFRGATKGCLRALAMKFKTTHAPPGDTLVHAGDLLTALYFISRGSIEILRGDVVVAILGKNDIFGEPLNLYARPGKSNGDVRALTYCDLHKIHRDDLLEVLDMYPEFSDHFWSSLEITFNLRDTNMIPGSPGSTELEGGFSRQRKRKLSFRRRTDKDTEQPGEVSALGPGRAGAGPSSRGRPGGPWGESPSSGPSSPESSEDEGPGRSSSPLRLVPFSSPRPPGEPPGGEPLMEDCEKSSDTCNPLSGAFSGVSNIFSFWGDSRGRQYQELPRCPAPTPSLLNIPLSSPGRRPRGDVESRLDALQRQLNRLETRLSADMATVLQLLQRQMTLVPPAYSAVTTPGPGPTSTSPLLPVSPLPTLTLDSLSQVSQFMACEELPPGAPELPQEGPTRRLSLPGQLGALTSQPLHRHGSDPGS
# Assay Procedure: Binding affinity to iKr potassium channel
Reported Endpoint: log10 of Activity (log10 of the value in µM)

Molecule	log10 of Activity
CC(C)N1CCC(Nc2nc(-c3ccccc3Cl)c3c(n2)N(c2c(Cl)cccc2Cl)C(=O)NC3)CC1	0.81
COCCNc1nc(-c2ccc(Cl)cc2Cl)c2c(n1)N(c1c(Cl)cccc1Cl)C(=O)NC2	0.48
CN(C)c1nc(-c2ccccc2Cl)c2c(n1)N(c1c(Cl)cccc1Cl)C(=O)NC2	0.78
CS(=O)(=O)c1nc(-c2ccccc2Cl)c2c(n1)N(c1c(Cl)cccc1Cl)C(=O)NC2	0.95
CNc1nc(-c2ccccc2Cl)c2c(n1)N(c1c(Cl)cccc1Cl)C(=O)NC2	0.81
O=C1NCc2c(-c3ccccc3Cl)nc(NC3CN4CCC3CC4)nc2N1c1c(Cl)cccc1Cl (stereo not drawn)	0.76
CN(C)CCN1CCN(c2nc(-c3ccccc3Cl)c3c(n2)N(c2c(Cl)cccc2Cl)C(=O)NC3)CC1	0.58
CC(C)(C)CNc1nc(-c2ccccc2Cl)c2c(n1)N(c1c(Cl)cccc1Cl)C(=O)NC2	1.00
C[C@@H]1CN(c2nc(-c3ccc(Cl)cc3Cl)c3c(n2)N(c2c(Cl)cccc2Cl)C(=O)NC3)C[C@H](C)O1	0.70
O=C1NCc2c(-c3ccccc3Cl)nc(O)nc2N1c1c(Cl)cccc1Cl	0.66
CN1C2CCC1CC(Nc1nc(-c3ccccc3Cl)c3c(n1)N(c1c(Cl)cccc1Cl)C(=O)NC3)C2 (stereo not drawn)	0.95
CC(C)N1CCN(c2nc(-c3ccc(Cl)cc3Cl)c3c(n2)N(c2c(Cl)cccc2Cl)C(=O)NC3)CC1	-0.70
CC(C)Nc1nc(-c2ccccc2Cl)c2c(n1)N(c1c(Cl)cccc1Cl)C(=O)NC2	0.65
O=C1NCc2c(-c3ccccc3Cl)nc(N3CCc4[nH]ncc4C3)nc2N1c1c(Cl)cccc1Cl	1.00
CN(C)CCNc1nc(-c2ccc(Cl)cc2Cl)c2c(n1)N(c1c(Cl)cccc1Cl)C(=O)NC2	-0.30
CC1(C)CC(Nc2nc(-c3ccccc3Cl)c3c(n2)N(c2c(Cl)cccc2Cl)C(=O)NC3)CC(C)(C)N1	0.65
O=C1NCc2c(-c3ccccc3Cl)nc(NN3CCOCC3)nc2N1c1c(Cl)cccc1Cl	0.84
CN(C)CCOc1nc(-c2ccccc2Cl)c2c(n1)N(c1c(Cl)cccc1Cl)C(=O)NC2	1.00
